Test system: Tubulin free of microtubule-associated proteins
MEASUREMENT PROTOCOL: Tubulin Assembly (microtubule assembly; protein concentration of the supernatant)
Format: biochemical, bovine
CONDITION DESCRIPTION: concentration which reduces the supernatant protein concentration by 50%; tubulin 1 mg/ml, 37° C., 15 minutes, PEM buffer pH 6.9
Below is a list of entries, each paired with its recorded Tubulin Assembly ED50 value.
Write your answer as a measured quantity: the number, then the unit.

Note to self: Tubulin Assembly ED50 recorded for C/C=C(\C)C(=O)N[C@@H](c1ccccc1)[C@@H](O)C(=O)O[C@H]1C[C@@]2(O)[C@@H](OC(=O)c3ccccc3)[C@@H]3[C@]4(OC(C)=O)CO[C@@H]4C[C@H](O[C@@H]4OC[C@@H](O)[C@H](O)[C@H]4O)[C@@]3(C)C(=O)[C@H](O)C(=C1C)C2(C)C [Compound 9, 10-deacetyl-7-xylosyl cephalomannine] was 1.10 µg/mL
